# tested.system: kappa opioid receptor (Homo sapiens)
# Sequence (P41145 whole entry): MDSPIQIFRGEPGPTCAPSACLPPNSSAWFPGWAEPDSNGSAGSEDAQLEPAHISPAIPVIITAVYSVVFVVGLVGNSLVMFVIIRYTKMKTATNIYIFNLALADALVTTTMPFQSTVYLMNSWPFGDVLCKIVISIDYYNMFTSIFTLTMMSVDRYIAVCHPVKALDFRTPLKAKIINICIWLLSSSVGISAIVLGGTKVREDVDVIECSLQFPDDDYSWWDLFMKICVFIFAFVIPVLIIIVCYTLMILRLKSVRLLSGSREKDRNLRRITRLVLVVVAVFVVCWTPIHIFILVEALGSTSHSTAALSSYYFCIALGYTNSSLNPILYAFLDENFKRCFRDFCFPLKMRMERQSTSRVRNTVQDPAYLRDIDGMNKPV
# protocol: biochemical
# Format: biochemical
# Design: expressed in transfected cells; host or cells: transfected cells
# test.context: Table 2; read-out: kappa EC50
Assign EC50 to each entry below.
Please state the figure in nM; there is no need to write the unit.

Quick check: EC50 on kappa opioid receptor (Homo sapiens), item COc1cccc(C(=O)NC2C=CC3C4Cc5ccc(O)c6c5C3(CCN4C)C2O6)c1 (stereo not drawn) [13c, 6β-(3-Methoxy)benzamidomorphine] ?
9.8

Quick check: EC50 on kappa opioid receptor (Homo sapiens), item CN1CCC23c4c5ccc(O)c4OC2C(NC(=O)Cc2cccs2)C=CC3C1C5 (stereo not drawn) [13h, 6β-(Thiophen-2′-yl)acetamidomorphine] ?
4.5

Quick check: EC50 on kappa opioid receptor (Homo sapiens), item CN1CCC23c4c5ccc(O)c4OC2C(NC(=O)c2cccc([N+](=O)[O-])c2)C=CC3C1C5 (stereo not drawn) [13f, 6β-(3′Nitro)benzamidomorphine] ?
1.2

Quick check: EC50 on kappa opioid receptor (Homo sapiens), item CN1CCC23c4c5ccc(O)c4OC2C(NC(=O)c2cccc(C(=O)O)c2)C=CC3C1C5 (stereo not drawn) [compound 14, 6β-(3′Carboxy)benzamidomorphine] ?
5100

Quick check: EC50 on kappa opioid receptor (Homo sapiens), item COC(=O)c1cccc(C(=O)NC2C=CC3C4Cc5ccc(O)c6c5C3(CCN4C)C2O6)c1 (stereo not drawn) [13e, 6β-(3′-Carbomethoxy)benzamidomorphine] ?
11.2

Quick check: EC50 on kappa opioid receptor (Homo sapiens), item COC(=O)[C@H]1OC(CC(=O)NC2C=CC3C4Cc5ccc(OC)c6c5C3(CCN4C)C2O6)[C@H](OC(C)=O)[C@@H](OC(C)=O)[C@@H]1OC(C)=O (stereo partly drawn) [9b] ?
1840

Quick check: EC50 on kappa opioid receptor (Homo sapiens), item CC(=O)OC[C@H]1OC(SC2C=CC3C4Cc5ccc(O)c6c5C3(CCN4C)C2O6)[C@H](OC(C)=O)[C@@H](OC(C)=O)[C@@H]1OC(C)=O (stereo partly drawn) [3d] ?
52

Quick check: EC50 on kappa opioid receptor (Homo sapiens), item COc1ccc(CC(=O)NC2C=CC3C4Cc5ccc(O)c6c5C3(CCN4C)C2O6)cc1 (stereo not drawn) [13b, 6β-(4-Methoxyphenyl)acetamidomorphine] ?
5

Quick check: EC50 on kappa opioid receptor (Homo sapiens), item COC(=O)[C@H]1OC(CC(=O)NC2C=CC3C4Cc5ccc(O)c6c5C3(CCN4C)C2O6)[C@H](OC(C)=O)[C@@H](OC(C)=O)[C@@H]1OC(C)=O (stereo in doubt) [compound 10] ?
119

Quick check: EC50 on kappa opioid receptor (Homo sapiens), item CN1CCC23c4c5ccc(O)c4OC2C(NC(=O)CC2O[C@H](C(=O)O)[C@@H](O)[C@H](O)[C@H]2O)C=CC3C1C5 (stereo partly drawn) [11a, 6β-(α-Glucuronosyl)acetamidomorphine] ?
1210

Quick check: EC50 on kappa opioid receptor (Homo sapiens), item COc1ccc2c3c1OC1C(SC4O[C@H](CO)[C@@H](O)[C@H](O)[C@H]4O)C=CC4C(C2)N(C)CCC341 (stereo partly drawn) [4d, 6β-Thiocodeine-6β-S-D-glucose] ?
4630

Quick check: EC50 on kappa opioid receptor (Homo sapiens), item COc1cccc(CC(=O)NC2C=CC3C4Cc5ccc(O)c6c5C3(CCN4C)C2O6)c1 (stereo not drawn) [13a, 6β-(3-Methoxyphenyl)acetamidomorphine] ?
4.8
